readout-kind: melting point

# input Specify reported melting point for the molecule shown: O=C(Nc1cccc(OC(F)F)c1)c1cccc(NS(=O)(=O)c2cccc([N+](=O)[O-])c2)c1
# output 159.8 to 160.6 °C

# input Specify reported melting point for the molecule shown: Cc1ccc(NC(=O)c2ccccc2NS(=O)(=O)c2cccc([N+](=O)[O-])c2)cc1C(F)(F)F
# output 166.4 to 167.4 °C

# input Specify reported melting point for the molecule shown: O=C(Nc1ccc(Cl)c(Cl)c1)c1ccc(NS(=O)(=O)c2cccc([N+](=O)[O-])c2)cc1
# output 189.2 to 190.5 °C

# input Specify reported melting point for the molecule shown: O=C(Nc1ccc(F)c(Cl)c1)c1ccccc1NS(=O)(=O)c1ccc([N+](=O)[O-])cc1
# output 226.4 to 227.1 °C

# input Specify reported melting point for the molecule shown: Cc1ccc(NC(=O)c2ccccc2NS(=O)(=O)c2cccc(OC(F)(F)F)c2)cc1C(F)(F)F
# output 179.4 to 180.5 °C

# input Specify reported melting point for the molecule shown: COc1cccc(S(=O)(=O)Nc2ccccc2C(=O)Nc2cccc(OC(F)(F)F)c2)c1
# output 149.3 to 150.8 °C

# input Specify reported melting point for the molecule shown: COc1ccc(NC(=O)c2ccccc2NS(=O)(=O)c2cccc([N+](=O)[O-])c2)cc1O
# output 168.9 to 170.1 °C

# input Specify reported melting point for the molecule shown: O=C(Nc1cc(F)cc(F)c1)c1ccccc1NS(=O)(=O)c1cccc([N+](=O)[O-])c1
# output 181.1 to 181.9 °C

# input Specify reported melting point for the molecule shown: O=C(Nc1ccc(Cl)cc1Cl)c1ccccc1NS(=O)(=O)c1ccc([N+](=O)[O-])cc1
# output 220.6 to 221.3 °C

# input Specify reported melting point for the molecule shown: O=C(Nc1ccc(Cl)cc1Cl)c1ccccc1NS(=O)(=O)c1cccc(F)c1
# output 146.3 to 147.6 °C

# input Specify reported melting point for the molecule shown: O=C(Nc1cccc(OC(F)F)c1)c1ccccc1NS(=O)(=O)c1ccc([N+](=O)[O-])cc1
# output 203.9 to 205 °C

# input Specify reported melting point for the molecule shown: O=C(Nc1cccc(Cl)c1)c1ccccc1NS(=O)(=O)c1cccc([N+](=O)[O-])c1
# output 167.3 to 168.1 °C

# input Specify reported melting point for the molecule shown: O=C(Nc1ccc(F)c(Cl)c1)c1ccccc1NS(=O)(=O)c1cccc(F)c1
# output 178.6 to 179.9 °C

# input Specify reported melting point for the molecule shown: COc1cccc(S(=O)(=O)Nc2ccccc2C(=O)Nc2ccc(Cl)cc2Cl)c1
# output 138.8 to 139.7 °C

# input Specify reported melting point for the molecule shown: O=C(Nc1ccc(F)c(Cl)c1)c1ccccc1NS(=O)(=O)c1cccc(OC(F)(F)F)c1
# output 157.3 to 158.6 °C

# input Specify reported melting point for the molecule shown: O=C(Nc1cccc(OC(F)F)c1)c1ccccc1NS(=O)(=O)c1cccc([N+](=O)[O-])c1
# output 127.4 to 128.2 °C

# input Specify reported melting point for the molecule shown: COc1cccc(S(=O)(=O)Nc2ccccc2C(=O)Nc2ccc(C)c(C(F)(F)F)c2)c1
# output 165.7 to 166.6 °C

# input Specify reported melting point for the molecule shown: O=C(Nc1ccc(Cl)c(Cl)c1)c1cccc(NS(=O)(=O)c2cccc([N+](=O)[O-])c2)c1
# output 192.5 to 193.7 °C
